# target system: Insulin-like growth factor 1 receptor (Homo sapiens) (UniProt P08069)
# Sequence (P08069 31-736 limits assumed): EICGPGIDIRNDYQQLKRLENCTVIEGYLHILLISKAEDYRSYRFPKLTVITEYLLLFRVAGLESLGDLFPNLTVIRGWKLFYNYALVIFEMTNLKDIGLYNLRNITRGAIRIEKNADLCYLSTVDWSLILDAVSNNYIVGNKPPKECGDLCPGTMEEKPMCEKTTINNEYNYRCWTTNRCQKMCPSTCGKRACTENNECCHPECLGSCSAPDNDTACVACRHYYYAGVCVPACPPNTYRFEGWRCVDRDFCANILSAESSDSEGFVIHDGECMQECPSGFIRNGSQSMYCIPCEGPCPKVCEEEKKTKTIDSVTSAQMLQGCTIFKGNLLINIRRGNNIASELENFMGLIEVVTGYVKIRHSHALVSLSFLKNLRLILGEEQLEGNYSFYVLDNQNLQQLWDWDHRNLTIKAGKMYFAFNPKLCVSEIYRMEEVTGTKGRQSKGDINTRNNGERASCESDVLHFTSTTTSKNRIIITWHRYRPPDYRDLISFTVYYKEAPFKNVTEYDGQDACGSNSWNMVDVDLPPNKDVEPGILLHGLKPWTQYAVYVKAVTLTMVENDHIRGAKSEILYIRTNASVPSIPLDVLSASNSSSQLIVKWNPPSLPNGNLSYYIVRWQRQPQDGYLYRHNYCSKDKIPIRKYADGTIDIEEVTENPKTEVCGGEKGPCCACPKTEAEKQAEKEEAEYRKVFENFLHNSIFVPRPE
# Sequence (P08069 741-1367 limits assumed): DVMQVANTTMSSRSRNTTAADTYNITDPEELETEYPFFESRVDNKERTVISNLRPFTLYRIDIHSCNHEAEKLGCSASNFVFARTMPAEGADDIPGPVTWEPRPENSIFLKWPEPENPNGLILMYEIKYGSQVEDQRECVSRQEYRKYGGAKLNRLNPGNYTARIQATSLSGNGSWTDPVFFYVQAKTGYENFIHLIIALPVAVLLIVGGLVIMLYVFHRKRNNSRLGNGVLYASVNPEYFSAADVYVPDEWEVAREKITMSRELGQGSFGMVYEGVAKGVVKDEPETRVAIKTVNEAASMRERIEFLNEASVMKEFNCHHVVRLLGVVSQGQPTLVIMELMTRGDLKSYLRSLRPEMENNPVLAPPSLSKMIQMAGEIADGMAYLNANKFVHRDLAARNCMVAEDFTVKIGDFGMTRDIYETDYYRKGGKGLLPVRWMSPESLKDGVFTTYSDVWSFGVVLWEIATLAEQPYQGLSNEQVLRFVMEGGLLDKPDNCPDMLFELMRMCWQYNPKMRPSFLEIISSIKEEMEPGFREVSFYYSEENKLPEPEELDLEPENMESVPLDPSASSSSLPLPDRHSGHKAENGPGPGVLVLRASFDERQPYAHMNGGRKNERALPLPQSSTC
# experimental parameters: at 0.1 µM
# inhibition per record follows
A number alone suffices; assume %.

COc1ccc2cc(-c3c(-c4ccncc4)nc(-c4ccc(S(C)(=O)=O)cc4C)n3C)ccc2c1 = 4.23
CS(=O)(=O)CCNCc1cc(-c2cc3c(Nc4ccc(OCc5cccc(F)c5)c(Cl)c4)ncnc3s2)cs1 = 5.7
CN1CCN(CCCNc2nc3ccc(Oc4ccc(NC(=O)Nc5cc(C(F)(F)F)ccc5F)cc4)cc3[nH]2)CC1 = -9.82
C[C@@H](Oc1cc(-n2cnc3ccc(OC4CCN(C)CC4)cc32)sc1C(N)=O)c1ccccc1Cl = -9.14
NC(=O)c1cc(-c2ccc(F)cc2)cc(-c2ccncc2)c1N = 2.14
NS(=O)(=O)c1ccc(N/N=C2\C(=O)Nc3ccc(C(=O)NCCCn4ccnc4)cc32)cc1 = 2.13

QUERY: Which measured inhibition belongs to `c1ccc(-c2n[nH]cc2-c2ccnc(-c3ccc(OCCN4CCOCC4)cc3)c2)nc1` , tested on Insulin-like growth factor 1 receptor (Homo sapiens) (UniProt P08069)?
RESULT: -2.45

QUERY: Which measured inhibition belongs to `O=C1Nc2ccccc2/C1=C/Nc1ccc(-n2cncn2)cc1` , tested on Insulin-like growth factor 1 receptor (Homo sapiens) (UniProt P08069)?
RESULT: 10.8

QUERY: Which measured inhibition belongs to `Fc1ccc(-c2ncn(C3CCNCC3)c2-c2ccnc(Oc3ccc4c(c3)OCO4)n2)cc1` , tested on Insulin-like growth factor 1 receptor (Homo sapiens) (UniProt P08069)?
RESULT: 0.4

QUERY: Which measured inhibition belongs to `O=C(Nc1n[nH]c2cc(-c3ccccc3)ccc12)C1CC1` , tested on Insulin-like growth factor 1 receptor (Homo sapiens) (UniProt P08069)?
RESULT: 10.5

QUERY: Which measured inhibition belongs to `CN(c1ccc(NC(=O)Nc2c(Cl)cccc2Cl)cc1)c1ccnc(Nc2cccc(CS(C)(=O)=O)c2)n1` , tested on Insulin-like growth factor 1 receptor (Homo sapiens) (UniProt P08069)?
RESULT: 5.47

QUERY: Which measured inhibition belongs to `CCc1nccc2c1nc(-c1nonc1N)n2CC` , tested on Insulin-like growth factor 1 receptor (Homo sapiens) (UniProt P08069)?
RESULT: -0.66

QUERY: Which measured inhibition belongs to `CCc1ccc(Oc2nccc(-c3c(-c4ccc(F)cc4)ncn3C3CCNCC3)n2)cc1` , tested on Insulin-like growth factor 1 receptor (Homo sapiens) (UniProt P08069)?
RESULT: 5.24

QUERY: Which measured inhibition belongs to `O=C(NCC1CC1)c1ccc(-c2cccc(C(=O)NC3CC3)c2)cc1` , tested on Insulin-like growth factor 1 receptor (Homo sapiens) (UniProt P08069)?
RESULT: 2.46

QUERY: Which measured inhibition belongs to `c1ccc(Oc2ccc(Nc3ncc(-c4ccccc4)o3)cc2)cc1` , tested on Insulin-like growth factor 1 receptor (Homo sapiens) (UniProt P08069)?
RESULT: 1.77

QUERY: Which measured inhibition belongs to `CCN(CC)Cc1ccc(Nc2nccc(-c3cnn4ncccc34)n2)cc1` , tested on Insulin-like growth factor 1 receptor (Homo sapiens) (UniProt P08069)?
RESULT: 3.11

QUERY: Which measured inhibition belongs to `C[C@@H](Oc1cc(-n2cnc3ccc(OCC4CCN(C)CC4)cc32)sc1C(N)=O)c1ccccc1Cl` , tested on Insulin-like growth factor 1 receptor (Homo sapiens) (UniProt P08069)?
RESULT: 6.33

QUERY: Which measured inhibition belongs to `CCc1cccc(CC)c1/C=C/c1cncc(C(=O)NC)c1` , tested on Insulin-like growth factor 1 receptor (Homo sapiens) (UniProt P08069)?
RESULT: 3.36

QUERY: Which measured inhibition belongs to `O=C1Nc2ccc(I)cc2C1=Cc1cc(Br)c(O)c(Br)c1` , tested on Insulin-like growth factor 1 receptor (Homo sapiens) (UniProt P08069)?
RESULT: 5.43

QUERY: Which measured inhibition belongs to `Clc1ccc(CNc2nccc(-c3cnn4ncccc34)n2)cc1` , tested on Insulin-like growth factor 1 receptor (Homo sapiens) (UniProt P08069)?;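 further: values are mean percent inhibition of IGF1R kinase activity, from the GSK published kinase inhibitor set (PKIS) screening panel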
RESULT: 2.48

====

# target system: Serine/threonine-protein kinase Chk1 (Homo sapiens);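 further: mean inhibition of CHEK1, part of the GSK PKIS profiling set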
# experimental parameters: at 1 µM
Threshold rule: inhibition greater than or equal to 10% is t; below that, f.

Clc1ccc(CNc2nccc(-c3cnn4ncccc34)n2)cc1 = f
NCc1ccc(-n2c(-c3nonc3N)nc3cnccc32)cc1 = t
NS(=O)(=O)c1ccc(N/N=C2\C(=O)Nc3ccc(C(=O)NCCCn4ccnc4)cc32)cc1 = t
Fc1ccc(-c2ncn(C3CCNCC3)c2-c2ccnc(Oc3ccc(Oc4ccccc4)cc3)n2)cc1 = t
CS(=O)(=O)CCNCc1ccc(-c2ccc3ncnc(Nc4ccc(OCc5ccccc5)c(Br)c4)c3c2)o1 = f

Next up:
QUERY: Does the reported inhibition for `COc1ccc2ncn(-c3cc(O[C@H](C)c4ccccc4Cl)c(C(N)=O)s3)c2c1` fall at or above the 10% mark?
RESULT: f

====

# target system: Sphingosine kinase 1 (Homo sapiens);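 further: mean percent inhibition of SPHK1 activity, measured within the GSK PKIS screening panel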
# experimental parameters: at 0.1 µM
# inhibition per record follows
Record the result as number plus unit.

Worked set:
CN(C)CCOc1ccc(-c2cc(-c3ccc4c(c3)CCC4=NO)c(-c3ccncc3)o2)cc1 = -0.35%
NS(=O)(=O)c1ccc(N/N=C2\C(=O)Nc3ccc(-c4cnco4)cc32)cc1 = -0.25%
COC(=O)Nc1nc2ccc(Sc3ccc(NC(=O)Nc4cc(C(F)(F)F)ccc4F)cc3)cc2[nH]1 = 0.39%
NC(=O)c1ccc(Oc2nccc(-c3c(-c4ccc(F)cc4)ncn3C3CCNCC3)n2)cc1 = 2.48%

Please examine the following record next.
QUERY: Give its inhibition value. Item: `CN(C)CCCNc1nccc(-c2c(-c3ccc(F)cc3)nn3cc(C(F)(F)F)ccc23)n1`
RESULT: 0%

====

# target system: SRSF protein kinase 1 (Homo sapiens);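 further: reported values are mean percent inhibition of SRPK1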
# experimental parameters: at 1 µM
# inhibition per record follows
A number alone suffices; assume %.

Fc1ccc(-c2ncn(C3CCNCC3)c2-c2ccnc(Oc3ccc(Oc4ccccc4)cc3)n2)cc1 = -2.43
C#Cc1cccc(Nc2ncnc3ccc(OCCCCNCCS(C)(=O)=O)cc23)c1 = -0.94
COc1cccc(/C=N/Nc2ncnc3c2cnn3-c2cccc(OC)c2)c1 = -2.5
Clc1ccc(CNc2nccc(-c3cnn4ncccc34)n2)cc1 = 1.1
Fc1ccc(-c2ncn(C3CCNCC3)c2-c2ccnc(Oc3ccc(F)c(F)c3)n2)cc1 = -1.49
CN(c1ccc(NC(=O)Nc2c(Cl)cccc2Cl)cc1)c1ccnc(Nc2cccc(CS(C)(=O)=O)c2)n1 = 2.16

QUERY: Give its inhibition value. Item: `C/C(Nc1ccc(S(N)(=O)=O)cc1)=C1/C(=O)Nc2ccccc21`
RESULT: 1.41

QUERY: Give its inhibition value. Item: `CNC(=O)c1cncc(/C=C/c2c(C)cccc2C)c1`
RESULT: 0.21

QUERY: Give its inhibition value. Item: `CCc1nccc2c1nc(-c1nonc1N)n2CC`
RESULT: -4.41

QUERY: Give its inhibition value. Item: `O=C(NCC1CC1)c1ccc(-c2cccc(C(=O)NC3CC3)c2)cc1`
RESULT: -3.41

====

# target system: Serine/threonine-protein kinase PAK 5 (Homo sapiens) (UniProt Q9P286);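 further: values are mean percent inhibition of PAK5 from a kinase inhibitor set screen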
# Sequence (Q9P286 whole entry, looked up): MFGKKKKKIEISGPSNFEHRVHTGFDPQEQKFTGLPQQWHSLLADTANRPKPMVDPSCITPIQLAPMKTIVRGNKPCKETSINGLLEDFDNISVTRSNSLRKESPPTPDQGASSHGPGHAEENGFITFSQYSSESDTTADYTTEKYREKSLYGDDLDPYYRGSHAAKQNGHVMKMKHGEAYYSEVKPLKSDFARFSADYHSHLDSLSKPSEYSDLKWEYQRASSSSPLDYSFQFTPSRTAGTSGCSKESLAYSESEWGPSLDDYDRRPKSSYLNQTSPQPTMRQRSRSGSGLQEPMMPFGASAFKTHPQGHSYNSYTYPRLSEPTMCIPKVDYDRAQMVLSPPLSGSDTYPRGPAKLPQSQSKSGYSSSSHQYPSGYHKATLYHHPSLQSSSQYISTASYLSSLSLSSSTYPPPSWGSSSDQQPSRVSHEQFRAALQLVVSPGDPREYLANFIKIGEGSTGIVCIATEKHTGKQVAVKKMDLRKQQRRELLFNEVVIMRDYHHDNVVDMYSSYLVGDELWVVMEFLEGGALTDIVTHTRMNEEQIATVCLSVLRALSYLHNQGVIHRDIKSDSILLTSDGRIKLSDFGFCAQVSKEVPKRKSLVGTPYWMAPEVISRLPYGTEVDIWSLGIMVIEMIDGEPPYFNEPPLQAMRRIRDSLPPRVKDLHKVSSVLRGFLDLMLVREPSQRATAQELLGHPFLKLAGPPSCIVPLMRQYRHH
# experimental parameters: at 0.1 µM
# inhibition per record follows
A number alone suffices; assume %.

CCc1cccc(CC)c1/C=C/c1cncc(C(=O)NC)c1 = 8.04
COc1cc2ncn(-c3cc(OCc4ccccc4C(F)(F)F)c(C(C)=O)s3)c2cc1OC = -1.43
CCc1ccc(Oc2nccc(-c3c(-c4ccc(F)cc4)ncn3C3CCNCC3)n2)cc1 = 6.56
COc1cc(Nc2ncc(-c3ccccc3)o2)cc(OC)c1OC = -0.92
COc1cc2ncn(-c3cc(OCc4cccs4)c(C(N)=O)s3)c2cc1OC = 8.19

QUERY: Give its inhibition value. Item: `COc1ccc2cc(-c3c(-c4ccncc4)nc(-c4ccc(S(C)(=O)=O)cc4C)n3C)ccc2c1`
RESULT: -1.89

QUERY: Give its inhibition value. Item: `NS(=O)(=O)c1ccc(N/N=C2\C(=O)Nc3ccc(-c4cnco4)cc32)cc1`
RESULT: 0.27

QUERY: Give its inhibition value. Item: `COc1cccc(-n2cnc3c(N/N=C/c4ccncc4)ncnc32)c1`
RESULT: 6.09

QUERY: Give its inhibition value. Item: Nc1nccc(-c2c(-c3ccc(F)cc3)ncn2C2CCC(O)CC2)n1 (centres undefined)
RESULT: -2.46

====

# target system: RAC-alpha serine/threonine-protein kinase (Homo sapiens) (UniProt P31749)
# Sequence (P31749 whole entry): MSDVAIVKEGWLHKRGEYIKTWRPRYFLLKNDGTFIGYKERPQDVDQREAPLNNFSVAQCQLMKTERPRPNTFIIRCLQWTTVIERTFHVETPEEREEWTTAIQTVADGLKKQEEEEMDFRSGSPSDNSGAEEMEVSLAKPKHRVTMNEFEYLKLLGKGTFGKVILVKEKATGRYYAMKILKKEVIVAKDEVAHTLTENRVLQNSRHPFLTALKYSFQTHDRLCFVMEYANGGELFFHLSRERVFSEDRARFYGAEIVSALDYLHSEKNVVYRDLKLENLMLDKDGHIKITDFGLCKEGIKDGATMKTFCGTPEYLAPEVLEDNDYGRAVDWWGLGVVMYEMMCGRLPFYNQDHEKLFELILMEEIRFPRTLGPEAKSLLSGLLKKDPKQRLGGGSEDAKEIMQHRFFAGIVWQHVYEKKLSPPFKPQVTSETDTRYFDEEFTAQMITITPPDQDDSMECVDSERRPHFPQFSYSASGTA
# experimental parameters: at 1 µM
# Description: GSK_PKIS: AKT1 mean inhibition at 1 uM [Nanosyn]
# inhibition per record follows
A number alone suffices; assume %.

Worked set:
NC(=O)c1cc(-c2ccncc2)cc(-c2ccccc2)c1N = 0.01
CN(C)c1ccc2c(c1)/C(=C/Nc1ccc(S(N)(=O)=O)cc1)C(=O)N2 = -0.46
Fc1ccc(-c2c(-c3ccncc3)nc3n2CCS3)cc1 = -2.76

Please examine the following record next.
QUERY: Give its inhibition value. Item: `NC(=O)c1cc(-c2ccc(F)cc2)cc(-c2ccncc2)c1N`
RESULT: 1.2
